- System: HIV-1 IN mutant N117A
- procedure_summary: single-round infectivity assay, N117A IN mutant
- Type: cell-based
- protocol_conditions: EC50 compound / EC50 DTG
Consider the following compounds; for each one, report its ratio of the EC50s (our compound relative to DTG) against N117A.
Numbers only.

Before answering, review these 4 worked examples.
(Q) Provide only the value of recorded ratio of the EC50s (our compound relative to DTG) against N117A for `COC(=O)CNc1c(C(=O)NCc2ccc(F)cc2F)c(=O)n(O)c2ncccc12`
(A) 2.4

(Q) Provide only the value of recorded ratio of the EC50s (our compound relative to DTG) against N117A for `CS(=O)(=O)CCc1cnc2c(c1)c(N)c(C(=O)NCc1ccc(F)cc1F)c(=O)n2O`
(A) 30.0

(Q) Provide only the value of recorded ratio of the EC50s (our compound relative to DTG) against N117A for `O=C(NCc1ccc(F)cc1F)c1c(O)c2cc(CCS(=O)(=O)c3ccccc3)cnc2n(O)c1=O`
(A) 12.8

(Q) Provide only the value of recorded ratio of the EC50s (our compound relative to DTG) against N117A for `O=C(NCc1ccc(F)cc1F)c1c(O)c2c(CO)ccnc2n(O)c1=O`
(A) 26.8

Give ratio of the EC50s (our compound relative to DTG) against N117A for each of the items listed below.
1. Nc1c(C(=O)NCc2ccc(F)cc2F)c(=O)n(O)c2ncc(CCCCCCO)cc12
2. Nc1c(C(=O)NCc2ccc(F)cc2F)c(=O)n(O)c2ncc(CCS(=O)(=O)CCN3CCOCC3)cc12

(A)
1. 1.2
2. 319.0
